Test: folding stability dG unfold (combined trypsin and chymotrypsin); higher = more stable
property measured: folding stability dG unfold
Your answer should be a number followed by the unit of measure.

SAGGSAGGSAGGPKIDHVMLHRNPGNGRYNVTIKLRDPNGKPKDTIMVPMNDPEKILDALSAGGSAGGSAGG [r7_484_TrROS]    -0.652 kcal/mol
SAGGSAGGSMRFPPGQKIEIEEWKHNPNGGNYQVSIRFKDGKKKTFTSPEDIDRLIKAGHVKISAGGSAGGS [r12_455_TrROS]    0.822 kcal/mol
SAGPKITVKKLPDGSYLLLIEVPHEGGPSSRALIPYNPKTGKLELLEIETTHEEIKDKLIELAEELRKSSAG [r5_266_TrMRF]    2.52 kcal/mol

**Q:** For the sequence SAGGSAGGSAGGMILTGDRAEILARLEAEGLGVAEEETVEEGDAPVTPVRVEVPPGAAGSAGGSAGGSAGGS [r10_885_JUSTAS] , what folding stability dG unfold is on record?
**A:** 0.561 kcal/mol

**Q:** Now give it for SIIRSPNGYWIVITVKVPEGAKPFPPGFEVQRDPEKGTLTIIMPMPPDDIRRLAEHPGVEIEKIEFIPWDSA [r9_827_TrROS] too.
**A:** 1.74 kcal/mol

**Q:** Now give it for SAGGGAPNKPVGKETFTVKIGDKWVKVEVTHYATSGTAEVKVTGPNGGPLGTFTVKIDPEKGGVYFGSAGGS [r16_798_TrMRF] too.
**A:** 2.11 kcal/mol

**Q:** Now give it for SAGRIEIDKIEPGKPVRIKIKIEMPDPNGKKRKMDFTRRVRVDPENGMIYIPITMPNGRPIPIMINVKKSAG [r5_743_TrROS] too.
**A:** 0.619 kcal/mol

* * *

Each item that follows carries a reported folding stability dG unfold.
Experiment: folding stability dG unfold (combined trypsin and chymotrypsin); higher = more stable
All answers are understood in kcal/mol, so give the number only.

**Q:** For the sequence SAGMLSSETVPFPDSEITIEYDPETGTVKITTTTTTSSPSLDYRTGKPGSVSSSTTTSFEVEAEPGAELSAG [r5_195_JUSTAS] , what folding stability dG unfold is on record?
**A:** 0.254

* * *

Assay: folding stability dG unfold (combined trypsin and chymotrypsin); higher = more stable
Each item that follows carries a reported folding stability dG unfold.

SAGGSAGGSAGGGRVLRLADGKWRLVELPDGSVVLVPENVPVLDPEAKEPVLVAPVLPLDSAGGSAGGSAGG [r7_968_TrMRF]    0.223 kcal/mol
SAGGSAGGSAGGDVEVKEFTTTDPETGEEIIRVTETIPGNEKIVTTYTKDGKPISTKKILSAGGSAGGSAGG [r7_454_JUSTAS]    -0.528 kcal/mol
SAGGSAGGSAGGKSYTDPNSNTVTTLDEGPGFGKVTTTTYKPEEPVPLETTESIIGPVLSSAGGSAGGSAGG [r7_343_JUSTAS]    0.273 kcal/mol
SAGGSAGGMTIKELLKEGVPFKIEMYGPNNGEPREFKIPPGESIDDILENMPFPPGMQIRIEPKSAGGSAGG [r6_232_TrROS]    -0.142 kcal/mol
SAGGSAKTVTVEVTLEDGTKITVTVPEDMSEEERKALAQELAEELREKLRQLRELEKEGKEVRIEPSAGGSA [r15_704_TrROS_Hall]    2.23 kcal/mol

**Q:** For the sequence SAGGSAMTVKVRLRVRRRVFNEDGELVAEEELELEVEVEVRPPPPPPPPPLTAEELAEKLGLEPEDSAGGSA [r15_572_TrROS_Hall] , what folding stability dG unfold is on record?
**A:** 3.19 kcal/mol

**Q:** Now give it for SAGGMPPSFVVEEEKTVEGTSTVTLRKITNPSSSEDMLSEIVTPPDGSVTLILKKDNIIEVIPSSELSAGGS [r16_49_JUSTAS] too.
**A:** < -1 kcal/mol
